# Tested on: WNT-TCF targets
# ASSAY_PROCEDURE: RT-qPCR gene expression in Ls174T cells
# Type: cell-based, human
# TEST_SETTINGS: Homo sapiens; Ls174T; 0.5µM; 16h; over DMSO-treated controls; read-out: cMYC expression
Respond with Met for fold induction at 0.5 µM values of 0.5 and above, Not met for values below.

INSERT INTO results (molecule, assigned_label) VALUES
  ('CO[C@H]1C[C@H](O[C@H]2CC[C@@]3(C)[C@H](CC[C@@H]4[C@@H]3CC[C@]3(C)[C@@H](C5=CC(=O)OC5)[C@@H](OC(C)=O)C[C@]43O)C2)O[C@@H](C)[C@@H]1O [Oleandrin, oleandrin, reference compound]', 'Not met'),
  ('CO[C@H]1C[C@H](O[C@H]2CC[C@]3(C=O)[C@H]4CC[C@]5(C)[C@@H](C6=CC(=O)OC6)CC[C@]5(O)[C@@H]4CC[C@]3(O)C2)O[C@H](C)[C@H]1O [Cymarin, cymarin, reference compound]', 'Met'),
  ('C[C@H]1O[C@@H](O[C@H]2[C@@H](O)C[C@H](O[C@H]3[C@@H](O)C[C@H](O[C@H]4CC[C@@]5(C)[C@H](CC[C@@H]6[C@@H]5C[C@@H](O)[C@]5(C)[C@@H](C7=CC(=O)OC7)CC[C@]65O)C4)O[C@@H]3C)O[C@@H]2C)C[C@H](O)[C@@H]1O [Digoxin, digoxin, reference compound]', 'Met'),
  ('C[C@H]1O[C@@H](O[C@H]2[C@@H](O)C[C@H](O[C@H]3[C@@H](O)C[C@H](O[C@H]4CC[C@@]5(C)[C@H](CC[C@@H]6[C@@H]5CC[C@]5(C)[C@@H](C7=CC(=O)OC7)CC[C@]65O)C4)O[C@@H]3C)O[C@@H]2C)C[C@H](O)[C@@H]1O [Digitoxin, digitoxin, reference compound]', 'Not met'),
  ('C[C@]12CC[C@H](O)C[C@H]1CC[C@@H]1[C@@H]2CC[C@]2(C)[C@@H](C3=CC(=O)OC3)[C@@H](O)C[C@]12O [Gitoxigenin, gitoxigenin, reference compound]', 'Not met');

====

Known fold induction at 0.5 µM of a selection of molecules
# Tested on: WNT-TCF targets
# ASSAY_PROCEDURE: RT-qPCR gene expression in Ls174T cells
# Type: cell-based, human
# TEST_SETTINGS: Homo sapiens; Ls174T; 0.5µM; 16h; over DMSO-treated controls; read-out: AXIN2 expression
MEASURED_PROPERTY: fold induction at 0.5 µM

INSERT INTO assay_data (molecule, target_or_test_system, result) VALUES
  ('C[C@@H]1O[C@@H](O[C@H]2C[C@@H](O)[C@]3(CO)[C@H]4[C@H](O)C[C@]5(C)[C@@H](C6=CC(=O)OC6)CC[C@]5(O)[C@@H]4CC[C@]3(O)C2)[C@H](O)[C@H](O)[C@H]1O [Ouabain, ouabain, reference compound]', 'WNT-TCF targets', 0.8),
  ('C[C@]12CC[C@H](O)C[C@H]1CC[C@@H]1[C@@H]2CC[C@]2(C)[C@@H](C3=CC(=O)OC3)[C@@H](O)C[C@]12O [Gitoxigenin, gitoxigenin, reference compound]', 'WNT-TCF targets', 1),
  ('C[C@H]1O[C@@H](O[C@H]2[C@@H](O)C[C@H](O[C@H]3[C@@H](O)C[C@H](O[C@H]4CC[C@@]5(C)[C@H](CC[C@@H]6[C@@H]5CC[C@]5(C)[C@@H](C7=CC(=O)OC7)CC[C@]65O)C4)O[C@@H]3C)O[C@@H]2C)C[C@H](O)[C@@H]1O [Digitoxin, digitoxin, reference compound]', 'WNT-TCF targets', 0.6),
  ('C[C@H]1O[C@@H](O[C@H]2[C@@H](O)C[C@H](O[C@H]3[C@@H](O)C[C@H](O[C@H]4CC[C@@]5(C)[C@H](CC[C@@H]6[C@@H]5C[C@@H](O)[C@]5(C)[C@@H](C7=CC(=O)OC7)CC[C@]65O)C4)O[C@@H]3C)O[C@@H]2C)C[C@H](O)[C@@H]1O [Digoxin, digoxin, reference compound]', 'WNT-TCF targets', 0.5);
